The reported measurements were obtained from paper PMC6222646.

- Target Or Test System: HIV-1 integrase (IN) (Human immunodeficiency virus type 1 group M subtype B, UniProt P12497)
- Experiment: In vitro integrase catalytic assay, strand transfer (ST)
- Type: biochemical
- Assay Context: 400 nM IN, 20 nM 32P-labeled pre-cleaved 19T/21B DNA, 37 °C, 2 h
Where a SMILES comes first, the peptide text is derived from it. [ ]: non-standard residue; d: D form. Bpa = N[C@@H](Cc1ccc(C(=O)c2ccccc2)cc1)C(=O)O
Measured Endpoint: IC50 (µM)
# output: bare number, implied unit µM

* CC[C@H](C)[C@H](NC(=O)[C@H](CCCNC(=N)N)NC(=O)[C@H](Cc1ccccc1)NC(=O)[C@H](C)NC(=O)[C@@H](NC(=O)[C@H](Cc1ccccc1)NC(C)=O)[C@@H](C)CC)C(=O)NCC(N)=O [Peptide 6c, Ac-FIAFRIG-amide] (Ac-FIAFRIG-NH2) | 3.5

Continue with the compound presented below.
Note to self: IC50 recorded for CC[C@H](C)[C@H](NC(=O)[C@H](CCCNC(=N)N)NC(=O)[C@H](Cc1ccc(C(=O)c2ccccc2)cc1)NC(=O)[C@H](Cc1c[nH]cn1)NC(=O)[C@@H](NC(=O)[C@@H](N)Cc1ccccc1)[C@@H](C)CC)C(=O)NCC(=O)O [Peptide 11a, FIHBRIG] (H-FIH[Bpa]RIG-OH) was 4.2

----------
Parameter: pIC50. Scope: all listed entries.
- Target Or Test System: UniProt:P12497
- Experiment: In vitro integrase catalytic assay, strand transfer (ST)
- Assay type: biochemical
- Assay Context: 400 nM IN, 20 nM 32P-labeled pre-cleaved 19T/21B DNA, 37 °C, 2 h
Where a SMILES comes first, the peptide text is derived from it.
// returns pIC50 (minus log10 of molar concentration), number only

Note to self: pIC50 recorded for CC[C@H](C)[C@H](NC(=O)[C@H](CCCNC(=N)N)NC(=O)[C@H](Cc1ccccc1)NC(=O)[C@H](Cc1c[nH]cn1)NC(=O)[C@H](C)NC(=O)[C@H](Cc1ccccc1)NC(C)=O)C(=O)NCC(N)=O [Peptide 7c, Ac-FAHFRIG-amide] (Ac-FAHFRIG-NH2) was 3.90

Note to self: pIC50 recorded for CC[C@H](C)[C@H](NC(=O)[C@H](Cc1ccccc1)NC(C)=O)C(=O)N[C@@H](Cc1c[nH]cn1)C(=O)N[C@@H](Cc1ccccc1)C(=O)N[C@@H](CCCNC(=N)N)C(=O)N[C@@H](C)C(=O)NCC(N)=O [Peptide 3c, Ac-FIHFRAG-amide] (Ac-FIHFRAG-NH2) was 4.55

----------
- Target Or Test System: HIV-1 integrase (IN) (Human immunodeficiency virus type 1 group M subtype B, UniProt P12497)
- Experiment: In vitro integrase catalytic assay, 3'-processing (3'-P)
- Format: biochemical
- Assay Context: 400 nM IN, 20 nM 32P-labeled 21T/21B DNA, 37 °C, 2 h
pIC50: −log10 of the molar value. Where a SMILES comes first, the peptide text is derived from it.
Parameter: pIC50. Scope: all listed entries.

Field: example entries. Status: answers known.
- CC[C@H](C)[C@H](NC(=O)[C@H](C)NC(=O)[C@H](Cc1ccccc1)NC(=O)[C@H](Cc1c[nH]cn1)NC(=O)[C@@H](NC(=O)[C@H](Cc1ccccc1)NC(C)=O)[C@@H](C)CC)C(=O)NCC(N)=O [Peptide 4c, Ac-FIHFAIG-amide] (Ac-FIHFAIG-NH2): < 3.48
- CC[C@H](C)[C@H](NC(=O)[C@H](CCCNC(=N)N)NC(=O)[C@H](Cc1ccccc1)NC(=O)[C@H](Cc1c[nH]cn1)NC(=O)[C@H](C)NC(=O)[C@H](Cc1ccccc1)NC(C)=O)C(=O)NCC(N)=O [Peptide 7c, Ac-FAHFRIG-amide] (Ac-FAHFRIG-NH2): < 3.48
- CC[C@H](C)[C@H](NC(=O)[C@H](C)N)C(=O)N[C@@H](Cc1c[nH]cn1)C(=O)N[C@@H](Cc1ccccc1)C(=O)N[C@@H](CCCNC(=N)N)C(=O)N[C@H](C(=O)NCC(N)=O)[C@@H](C)CC [Peptide 8b, AIHFRIG-amide] (H-AIHFRIG-NH2): < 3.95

Continue with the compound presented below.
Note to self: pIC50 recorded for CC[C@H](C)[C@H](NC(=O)[C@H](CCCNC(=N)N)NC(=O)[C@H](Cc1ccccc1)NC(=O)[C@H](Cc1c[nH]cn1)NC(=O)[C@H](C)NC(=O)[C@@H](N)Cc1ccccc1)C(=O)NCC(N)=O [Peptide 7b, FAHFRIG-amide] (H-FAHFRIG-NH2) was < 3.95
